Target of assay: M4 muscarinic receptor (Homo sapiens, UniProt P08173)
Construct: expressed in transfected cells; host or cells: CHO cells (M4-CHO, under puromycin, zeocin and blasticidin selection)
Procedure text: Functional mobilization of intracellular calcium (FLIPR, Fluo-3), M4-CHO cells
Type: cell-based
Experimental parameters: compound nos. 1-454; 100% efficacy is the maximum response obtained with the Carbachol control; read-out: M4 Efficacy
Measured attribute: Emax

Entry Fc1ccc2c(c1)C1(CCN(C[C@H]3C[C@H]4C=C[C@H]3C4)CC1)CO2 has what Emax?
55 to 70%

Entry COc1ccc(N2CCC(N3CCC4(CC3)CN(C(=O)N(C)C)c3ccc(F)cc34)CC2)cc1 has what Emax?
55 to 70%

Entry CN(C)C(=O)N1CC2(CCN(CC3CCN(c4cnccn4)C3)CC2)c2cc(F)ccc21 (stereo not drawn) has what Emax?
55 to 70%

* * *

Answer each item with its documented Emax.
Target of assay: M4 muscarinic receptor (Homo sapiens)
Construct: expressed in transfected cells; host or cells: CHO cells (M4-CHO, under puromycin, zeocin and blasticidin selection)
Sequence (P08173 1-479): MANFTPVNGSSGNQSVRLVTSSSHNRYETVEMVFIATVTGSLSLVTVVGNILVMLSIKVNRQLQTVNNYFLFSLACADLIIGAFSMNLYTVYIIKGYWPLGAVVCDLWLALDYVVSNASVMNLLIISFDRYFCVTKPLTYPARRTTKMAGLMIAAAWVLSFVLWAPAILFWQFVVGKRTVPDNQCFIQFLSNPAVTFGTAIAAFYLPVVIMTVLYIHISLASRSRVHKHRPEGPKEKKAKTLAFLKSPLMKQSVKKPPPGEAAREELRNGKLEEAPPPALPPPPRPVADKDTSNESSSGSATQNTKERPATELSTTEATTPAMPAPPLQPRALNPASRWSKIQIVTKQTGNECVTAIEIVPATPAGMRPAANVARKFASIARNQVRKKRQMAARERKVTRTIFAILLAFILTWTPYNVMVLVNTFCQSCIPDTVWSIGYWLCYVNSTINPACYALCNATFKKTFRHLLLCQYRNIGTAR
Procedure text: Functional mobilization of intracellular calcium (FLIPR, Fluo-3), M4-CHO cells
Type: cell-based
Experimental parameters: compound nos. 1-454; 100% efficacy is the maximum response obtained with the Carbachol control; read-out: M4 Efficacy

Entry COC(=O)N1CC2(CCN(C3CC4CCC(C3)N4C(=O)OCC(C)C)CC2)c2cc(F)ccc21 (stereo not drawn) has what Emax?
< 55%

Entry CC(=O)N[C@H]1CC2(CCN(C3CCC[C@@H](C)C3)CC2)c2ccccc21 (stereo partly drawn) has what Emax?
55 to 70%

Entry CCOC(=O)N1CCC(N2CCC3(CC2)CN(C(=O)c2ccncc2)c2ccc(F)cc23)CC1 has what Emax?
< 55%

Entry CCOC(=O)N1C2CCC1CC(N1CCC3(CC1)CN(C(C)=O)c1ccc(F)cc13)C2 (stereo not drawn) has what Emax?
> 70%

Entry CC(=O)N[C@H]1CC2(CCN(C3CCCCCC3)CC2)c2ccccc21 has what Emax?
> 70%

Entry O=C(C1CCC1)N1CC2(CCN(C3CC4CCC(C3)N4C(=O)O[C@@H]3CCOC3)CC2)c2cc(F)ccc21 (stereo partly drawn) has what Emax?
< 55%

Entry CCOC(=O)N1CCC(N2CCC3(CC2)CNc2ccc(Cl)cc23)CC1 has what Emax?
55 to 70%

Entry CCOC(=O)N1C2CCC1CC(N1CCC3(CC1)CN(C(C)=O)c1ccc(Cl)cc13)C2 (stereo not drawn) has what Emax?
< 55%

Entry CCCCC(=O)N1CC2(CCN(C3CCN(C(=O)OCC)CC3)CC2)c2cc(F)ccc21 has what Emax?
> 70%

Data provenance: patent US7858635B2
